These data points were gathered from patent US8906952B2.

pIC50 values for the compounds below.
Sequence of the target: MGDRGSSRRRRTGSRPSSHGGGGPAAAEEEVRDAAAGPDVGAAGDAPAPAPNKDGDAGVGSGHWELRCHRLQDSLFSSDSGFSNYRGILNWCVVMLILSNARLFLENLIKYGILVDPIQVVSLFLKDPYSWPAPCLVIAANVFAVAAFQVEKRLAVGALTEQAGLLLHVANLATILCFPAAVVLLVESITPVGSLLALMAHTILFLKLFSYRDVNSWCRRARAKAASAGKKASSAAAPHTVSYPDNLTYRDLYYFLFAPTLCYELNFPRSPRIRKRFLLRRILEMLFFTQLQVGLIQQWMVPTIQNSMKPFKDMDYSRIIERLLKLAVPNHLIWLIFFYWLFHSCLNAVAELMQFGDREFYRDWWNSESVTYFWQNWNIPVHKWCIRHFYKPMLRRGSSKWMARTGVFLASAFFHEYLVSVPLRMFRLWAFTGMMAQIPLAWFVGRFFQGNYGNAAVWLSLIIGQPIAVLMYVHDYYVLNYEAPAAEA
pIC50: −log10 of the molar value.

- smiles.repr: "COCCOc1cccc(C(=O)NN(C(=O)/C=C/c2cn(C(=O)OC(C)(C)C)c3ccccc23)C(C)C)c1"
  qualifier: "="
  pIC50: 4.44
- smiles.repr: "CC(C)(C)OC(=O)n1cc(/C=C/C(=O)NNS(=O)(=O)c2ccccc2)c2ccccc21"
  qualifier: "<"
  pIC50: 4.00
- smiles.repr: "CC(C)N(NC(=O)c1cccc(F)c1)C(=O)/C=C/c1cn(C)c2ccccc12"
  qualifier: "<"
  pIC50: 4.00
- smiles.repr: "CC(C)N(NC(=O)c1ccccc1)C(=O)/C=C/c1cn(C2CC2)c2ccccc12"
  qualifier: "="
  pIC50: 4.61

* * *

Collected activity at 1 µM values appear next to each entry.
- Tested on: HuTu80 cells
- experiment.summary: DGAT activity inhibitory effect in HuTu80 cells (triglyceride production from [14C]oleate)
- Assay type: cell-based, human
- recorded.conditions: Homo sapiens, HuTu80; 1 μM; read-out: Triglyceride Production Rate (% of control)/HuTu80cells

- smiles.repr: "Cc1cccc(C(=O)NN(C(=O)/C=C/c2cn(C(=O)OC(C)(C)C)c3ccccc23)C(C)C)c1"
  study.target: "HuTu80 cells"
  units.label: "%"
  activity at 1 µM: 30.2
- smiles.repr: "CC(C)CCn1cc(/C=C/C(=O)N(NC(=O)c2ccc(F)cc2)C(C)C)c2ccccc21"
  study.target: "HuTu80 cells"
  units.label: "%"
  activity at 1 µM: 30
- smiles.repr: "CC(C)N(NC(=O)c1ccc(F)cc1)C(=O)/C=C/c1cn(C(=O)OC(C)(C)C)c2ccccc12"
  study.target: "HuTu80 cells"
  units.label: "%"
  activity at 1 µM: 43.7
- smiles.repr: "CC(C)=CCn1cc(/C=C/C(=O)N(NC(=O)c2ccc(F)cc2)C(C)C)c2ccccc21"
  study.target: "HuTu80 cells"
  units.label: "%"
  activity at 1 µM: 33.4

* * *

- Tested on: HepG2 cells
- experiment.summary: DGAT inhibitory effect in HepG2 cells (triglyceride production from [14C]glycerol)
- Assay type: cell-based
- recorded.conditions: Homo sapiens, HepG2, 6 h; 10 μM; DMSO control = 100; read-out: Triglyceride production rate (%)/HepG2 cells at 10 μM
- Experimental: To investigate inhibition effect on intracellular DGAT enzyme activity of the compounds obtained in Examples 1-51, intracellular DGAT enzyme activity was measured using human-derived liver HepG2 cells. […]
readout.kind: activity at 10 µM (%)

- smiles.repr: "CC(C)N(NC(=O)c1ccc(OCCN2CCOCC2)cc1)C(=O)/C=C/c1cn(C(=O)OC(C)(C)C)c2ccccc12"
  readout.kind: "activity at 10 µM"
  recorded.result: 83.8
- smiles.repr: "CC(C)N(NC(=O)c1ccccn1)C(=O)/C=C/c1cn(C(=O)OC(C)(C)C)c2ccccc12"
  readout.kind: "activity at 10 µM"
  recorded.result: 64.2
- smiles.repr: "CC(C)N(NC(=O)c1ccccc1)C(=O)/C=C/c1cn(Cc2ccccc2)c2ccccc12"
  readout.kind: "activity at 10 µM"
  recorded.result: 59.8
- smiles.repr: "CC(C)N(NC(=O)c1cccc(OCC(N)=O)c1)C(=O)/C=C/c1cn(C(=O)OC(C)(C)C)c2ccccc12"
  readout.kind: "activity at 10 µM"
  recorded.result: 109
- smiles.repr: "CCCn1cc(/C=C/C(=O)N(NC(=O)c2cccc(F)c2)C(C)C)c2ccccc21"
  readout.kind: "activity at 10 µM"
  recorded.result: 79.9
- smiles.repr: "CC(C)N(NC(=O)c1ccccc1)C(=O)CCc1cn(C(=O)OC(C)(C)C)c2ccccc12"
  readout.kind: "activity at 10 µM"
  recorded.result: 60.7
- smiles.repr: "CC(C)=CCn1cc(/C=C/C(=O)N(NC(=O)c2cccc(F)c2)C(C)C)c2ccccc21"
  readout.kind: "activity at 10 µM"
  recorded.result: 58
- smiles.repr: "CC(C)N(NC(=O)c1ccccc1)C(=O)/C=C/c1cn(C(=O)c2ccccc2)c2ccccc12"
  readout.kind: "activity at 10 µM"
  recorded.result: 91.4
- smiles.repr: "CC(C)N(NC(=O)c1ccccc1)C(=O)CCc1cn(Cc2ccccc2)c2ccccc12"
  readout.kind: "activity at 10 µM"
  recorded.result: 103
- smiles.repr: "CC(C)(C)OC(=O)n1cc(/C=C/C(=O)NNS(=O)(=O)c2ccccc2)c2ccccc21"
  readout.kind: "activity at 10 µM"
  recorded.result: 81.7
- smiles.repr: "CC(C)N(NC(=O)c1ccc(F)cc1)C(=O)/C=C/c1cn(C(=O)OC(C)(C)C)c2ccccc12"
  readout.kind: "activity at 10 µM"
  recorded.result: 94.8
- smiles.repr: "CC(C)(C)OC(=O)n1cc(/C=C/C(=O)NNC(=O)c2ccccc2)c2ccccc21"
  readout.kind: "activity at 10 µM"
  recorded.result: 61.7
- smiles.repr: "Cc1cccc(C(=O)NN(C(=O)/C=C/c2cn(C(=O)OC(C)(C)C)c3ccccc23)C(C)C)c1"
  readout.kind: "activity at 10 µM"
  recorded.result: 74.7
- smiles.repr: "CC(C)N(NC(=O)c1ccc(O)cc1)C(=O)/C=C/c1cn(C(=O)OC(C)(C)C)c2ccccc12"
  readout.kind: "activity at 10 µM"
  recorded.result: 62.2
- smiles.repr: "CC(C)=CCn1cc(/C=C/C(=O)N(NC(=O)c2ccc(F)cc2)C(C)C)c2ccccc21"
  readout.kind: "activity at 10 µM"
  recorded.result: 55.7
- smiles.repr: "CC(C)N(NC(=O)c1ccccc1)C(=O)/C=C/c1c[nH]c2ccccc12"
  readout.kind: "activity at 10 µM"
  recorded.result: 116
- smiles.repr: "CC(C)N(NC(=O)c1ccccc1)C(=O)/C=C/c1cn(C(=O)C(C)(C)C)c2ccccc12"
  readout.kind: "activity at 10 µM"
  recorded.result: 93.3
- smiles.repr: "CC(C)CCn1cc(/C=C/C(=O)N(NC(=O)c2cccc(F)c2)C(C)C)c2ccccc21"
  readout.kind: "activity at 10 µM"
  recorded.result: 50.8
- smiles.repr: "CC(C)N(NC(=O)c1ccccc1)C(=O)/C=C/c1cn(C2CC2)c2ccccc12"
  readout.kind: "activity at 10 µM"
  recorded.result: 59.6
- smiles.repr: "CC(C)c1ccc2c(/C=C/C(=O)N(NC(=O)c3cccc(F)c3)C(C)C)cn(C(=O)OC(C)(C)C)c2c1"
  readout.kind: "activity at 10 µM"
  recorded.result: 75
- smiles.repr: "CC(C)N(NC(=O)c1cccc(F)c1)C(=O)/C=C/c1cn(C(=O)OC(C)(C)C)c2cc(F)ccc12"
  readout.kind: "activity at 10 µM"
  recorded.result: 85.7
- smiles.repr: "COCCOc1cccc(C(=O)NN(C(=O)/C=C/c2cn(C(=O)OC(C)(C)C)c3ccccc23)C(C)C)c1"
  readout.kind: "activity at 10 µM"
  recorded.result: 62
- smiles.repr: "CC(C)N(NC(=O)c1ccccc1)C(=O)CCc1c[nH]c2ccccc12"
  readout.kind: "activity at 10 µM"
  recorded.result: 87.7
- smiles.repr: "CC(C)N(NC(=O)c1cccc(F)c1)C(=O)/C=C/c1cn(C)c2ccccc12"
  readout.kind: "activity at 10 µM"
  recorded.result: 90
- smiles.repr: "COc1ccc(C(=O)NN(C(=O)/C=C/c2cn(C(=O)OC(C)(C)C)c3ccccc23)C(C)C)cc1"
  readout.kind: "activity at 10 µM"
  recorded.result: 85.8
- smiles.repr: "CCn1cc(/C=C/C(=O)N(NC(=O)c2cccc(F)c2)C(C)C)c2ccccc21"
  readout.kind: "activity at 10 µM"
  recorded.result: 79.4
- smiles.repr: "CC(C)N(NC(=O)c1cccc(OCC(=O)O)c1)C(=O)/C=C/c1cn(C(=O)OC(C)(C)C)c2ccccc12"
  readout.kind: "activity at 10 µM"
  recorded.result: 103
- smiles.repr: "CC(C)N(NC(=O)c1ccc(Br)cc1)C(=O)/C=C/c1cn(C(=O)OC(C)(C)C)c2ccccc12"
  readout.kind: "activity at 10 µM"
  recorded.result: 87.1
- smiles.repr: "CC(C)N(NC(=O)c1cccc(Cl)c1)C(=O)/C=C/c1cn(C(=O)OC(C)(C)C)c2ccccc12"
  readout.kind: "activity at 10 µM"
  recorded.result: 97.9
- smiles.repr: "CC(C)N(NC(=O)c1ccncc1)C(=O)/C=C/c1cn(C(=O)OC(C)(C)C)c2ccccc12"
  readout.kind: "activity at 10 µM"
  recorded.result: 81.3
- smiles.repr: "CC(C)N(NC(=O)c1ccccc1)C(=O)/C=C/c1cn(C)c2ccccc12"
  readout.kind: "activity at 10 µM"
  recorded.result: 88.6
